Source listed as the supplement of paper PMC8975748.

# z-score of subpopulation abundance per record follows
Test system: Saccharomyces cerevisiae BY4741 SeMeCo community
Assay: z-score of subpopulation abundance vs DMSO median, subpopulation auxotrophic for M; higher = larger share of this subpopulation than in DMSO controls
Details: 10 µM; 24 h; SM minimal medium; subpopulation (auxotrophy): M
Structures can show the parent of a compound that is named as a salt.
Measurement type: z-score of subpopulation abundance

1) CO/N=C(\C(=O)N[C@@H]1C(=O)N2C(C(=O)O)=CCS[C@H]12)c1csc(N)n1 [Ceftizoxime]    0.26
2) CCN1CCCC1CNC(=O)c1cc(S(=O)(=O)CC)c(N)cc1OC (stereo not given) [Amisulpride]    0.12
3) O=c1[nH]c(=O)n([C@H]2C[C@H](O)[C@@H](CO)O2)cc1I    -0.27
4) N#Cc1ccc2[nH]cc(CCCCN3CCN(c4ccc5oc(C(N)=O)cc5c4)CC3)c2c1 [Vilazodone]    0.28
5) N#Cc1ccc(Oc2ccc3c(c2)COB3O)cc1    -1.21
6) COc1cc([C@@H]2c3cc4c(cc3[C@@H](O[C@@H]3O[C@@H]5CO[C@@H](C)O[C@H]5[C@H](O)[C@H]3O)[C@H]3COC(=O)[C@H]23)OCO4)cc(OC)c1O [Etoposide]    0.21
7) CC(C)N1CCN(c2ccc(OCC3COC(Cn4cncn4)(c4ccc(Cl)cc4Cl)O3)cc2)CC1 (stereo not given)    -1.43
8) Cc1cccc(N(C)C(=S)Oc2ccc3ccccc3c2)c1 [Tolnaftate]    -0.22
9) CN(C)c1cc(NC(=O)CNC(C)(C)C)c(O)c2c1CC1CC3C(N(C)C)C(=O)C(C(N)=O)=C(O)C3(O)C(=O)C1=C2O (stereo not given)    -1.16
10) CC[C@H](c1ccc(O)cc1)[C@@H](CC)c1ccc(O)cc1    0.45
11) CO/N=C(\C(=O)N[C@@H]1C(=O)N2C(C(=O)O)=C(COC(C)=O)CS[C@H]12)c1csc(N)n1 [Cefotaxime sodium]    0.24
12) NC(=O)[C@@H]1CC[C@@H]2CN1C(=O)N2OS(=O)(=O)O [Avibactam sodium]    0.79
13) O=C(c1ccccc1)c1ccc2n1CCC2C(=O)O (stereo not given) [Ketorolac]    0
14) Cc1nccn1CC1CCc2c(c3ccccc3n2C)C1=O (stereo not given) [Ondansetron HCl]    -1.05
15) CC[C@H](C)C[C@H](C)CCCCCCCCC(=O)N[C@H]1C[C@@H](O)[C@@H](NCCN)NC(=O)[C@@H]2[C@@H](O)CCN2C(=O)[C@H]([C@H](O)CCN)NC(=O)[C@H]([C@H](O)[C@@H](O)c2ccc(O)cc2)NC(=O)[C@@H]2C[C@@H](O)CN2C(=O)[C@H]([C@@H](C)O)NC1=O [Caspofungin Acetate]    -8.37
